This collection of values is drawn from patent US8008547B2.

For each record, write down the corresponding Km.
Test: Standard protocol for determination of kcat and KM (continuous spectrophotometric assay, Acetyl CoA hydrolysis at 235 nm)
Assay type: biochemical
Settings: purified protein; about 23° C.; pH 6.8; 0.2 mM acetyl CoA; glyphosate 0.125 to 10 mM
Write down the numeric answer in µM and omit the unit.

Km for SEQ ID NO: 320: GAT polypeptide (protein, 14_7A1, GAT polypeptide) MIEVKPINAEDTYEIRHRILRPNQPLEACMYETDLLRGTFHLGGYYRGKLVSIASFHQAEHPELEGQKQYQLRGMATLEEYREQKAGSTLIRHAEELLRKKGADLLWCNARTSASGYYKKLGFSEQGEVYDTPPAGPHILMYKKLT is 1600

Lab note: measured Km of SEQ ID NO: 423: GAT polypeptide (protein, 9_15D5, GAT polypeptide) MIEVKPINAEDTYEIRHRILRPNQPLDACKYETDLLGGTFHLGGYYRGKLISIASFHQAEHPELEGQKQYQLRGMATLEGYREQKAGSTLIRHAEELLRKKGADLLWCNARTSASGYYKKLGFSEQGEVYDIPPVGPHILMYKKLT was 1200

Value of Km reported for the molecule SEQ ID NO: 312: GAT polypeptide (protein, 14_2B6, GAT polypeptide) MIEVKPINAEDTYEIRHRILRPNQPLEACKYETDLLGGTFHLGGYYRGKLISIASFNQAEHPELEGQKQYQLRGMATLEGYREQKAGSTLIRHAEELLRKKGADLLWCNARTSASGYYKKLGFSEQGGVYDIPPVGPHILMYKKLT is 630

Per the records, this molecule ( SEQ ID NO: 283: GAT polypeptide (protein, 11C3, GAT polypeptide) MIEVKPINAEDTYEIRHRILRPNQPLEACKYETDLLGGTFHLGGYYQGKLISIASFHQAEHSELEGQKQYQLRGMATLEGYREQKAGSTLIRHAEELLRKKGADLLWCNARTSVSGYYKKLGFSEQGGVYDIPPIGPHILMYKKLT ) has Km equal to 3100

// field: Km; key: SEQ ID NO: 479: GAT polypeptide (protein, 1_3H2, GAT polypeptide) MIEVKPINAEDTYELRHRILRPNQPIEACMYETDLLRGAFHLGGYYRGQLISIASFHKAEHSELQGQKQYQLRGMATLEGYREQKAGSTLIKHAEQLLREKGADMLWCNARTSAAGYYKRLGFSEQGEVFDTPPVGPHILMYKKLT ; value = 700

Just so you know, measured Km for SEQ ID NO: 313: GAT polypeptide (protein, 14_2G11, GAT polypeptide) MIEVKPINAEDTYEIRHRILRPNQPLEACKYETDLLRGAFHLGGYYRGKLVSIASFHQAEHPELEGQKQYQLRGMATLEGYREQKAGSTLIRHAEELLRKKGADLLWCNARTSASGYYKKLGFSEQGEVYDIPPTGPHILMYKKLT came out at 1400

Documented Km of SEQ ID NO: 352: GAT polypeptide (protein, 24C6, GAT polypeptide) MIEVKPINAEDTYEIRHRILRPNQPLEACMYETDLLGGTFHLGGYYRGKLISIASFHQAEHSELEGQKQYQLRGMATLEGYREQKAGSTLIRHAEELLRKKGADLLWCNARISVSGYYKKLGFSEQGGVYDIPPIGPHILMYKKLA : 1300

Record summary for SEQ ID NO: 449: GAT polypeptide (protein, 0_6D11, GAT polypeptide) MIEVKPINAEDTYELRHRILRPNQPIEACMYESDLLRGAFHLGGYYRGKLISIASFHQAEHSDLQGQKQYQLRGMATLEGFRDQKAGSSLIRHAEQILRKRGADLLWCNARTSASGYYKKLGFSEQGEVFETPPVGPHILMYKRIT : reported Km = 440

The molecule identified as SEQ ID NO: 302: GAT polypeptide (protein, 13_7B12, GAT polypeptide) MIEVKPINAEDTYEIRHRILRPNQPLEACKYETDLLGSTFHLGGYYRGKLISIASFHQAEHPELEGQKQYQLRGMATLEGYREQKAGSTLIRHAEELLRKKGADLLWCNARTSASGYYKKLGFSEQGEVYDIPPTGPHILMYKKLT registered its Km at 1700

Note to self: Km recorded for SEQ ID NO: 388: GAT polypeptide (protein, 6_19A10, GAT polypeptide) MIEAKPINAEDTYEIRHRILRPNQPLEACMYETDLLGGTFHLGGYYRGKLISIASFHQAEHPELEGQKQYQLRGMATLEGYREQKAGSTLIRHAEELLRKKGADLLWCNARTSASGYYKKLGFSEQGEVYDIPPTGPHILMYKKLT was 1900

Reported Km of SEQ ID NO: 404: GAT polypeptide (protein, 6_3H2, GAT polypeptide) MIEVKPINAEDTYEIRHRILRPNQPLEACMYETDLLGGTFHLGGYYRGKLISIASFHQAEHPELEGQKQYQLRGMATLEEYREQKAGSTLIRHAEELLRKKGADLLWCNARTSASGYYKKLGFSEQGEVYDIPPVGPHILMYKKLT : 1000

The molecule listed as SEQ ID NO: 443: GAT polypeptide (protein, 0_5C4, GAT polypeptide) MIEVKPINAEDTYELRHKILRPNQPLEACMYETDLLRGAFHLGGFYRGKLISIASFHQAEHSGLQGQKQYQLRGMATLEGYREQKAGSSIIKHAEEILRKKGADLLWCNARTSASGYYKKLGFSEQGEIFDTPPVGPHILMYKRIT has a reported Km of 670
